# test_description: Primary qHTS for Inhibitors of ATXN expression; also: nearly all actives have a fitted effect of over 55% in size
# condition_context: HEK-293 ATXN2-luciferase reporter, luminescence, 24 h; series mostly up to 57 µM
Among all 360,000 compounds or so, about 2,600 (0.72%) were called active. Inconclusive results (about 5%) are left out. Calls follow the shape of the dose curve; as a rule, active = well fitted inhibition curve with a large enough effect; inconclusive = small, poorly fitted or top-dose-only effect; inactive = no such curve, though single readings can be large or run the other way. This excerpt belongs to a sample that is enriched for actives.
Lab note: assign the record to one of YES for active, NO for inactive

Solved entries (count: 2):
# compound, class_label
records = [
    ("O=C(Nc1ccc(O)c(-c2nc3ccccc3o2)c1)c1ccc(-c2cccc(Cl)c2)o1", "NO"),
    ("COc1ccc(Cc2nnc(N/N=C/c3ccccc3O)[nH]c2=O)cc1OC", "YES"),
]

Qu. How did this test come out for CCN(CC)CCN(C(=O)c1cccc([N+](=O)[O-])c1)c1nc2ccc(OC)cc2s1 ?
Ans. NO

Qu. Another: COc1ccc(-c2nc(Cn3c(=O)cc(C)c4c(C)nn(-c5ccccc5)c43)c(C)o2)c(OC)c1
Ans. NO

Qu. Another: COc1cccc(-c2nc(S(=O)(=O)c3ccc(C)cc3)c(NCc3ccccc3)o2)c1
Ans. NO

Qu. Another: CC1(C)OC(=O)C2=C(C[C@@H](C3CCCCC3)O[C@@H]2c2ccc(Cl)cc2)O1
Ans. NO

Qu. Another: COc1cccc(CNC(=O)C(=O)NCC(c2cccs2)S(=O)(=O)c2ccccc2)c1 (configuration not stated)
Ans. NO

====

# test_description: Primary qHTS for Inhibitors of ATXN expression; also: nearly all actives have a fitted effect of over 55% in size
# condition_context: HEK-293 ATXN2-luciferase reporter, luminescence, 24 h; series mostly up to 57 µM
About 2,600 (0.72%) of roughly 360,000 compounds were called active. Another 5% or so got no clear call; they are omitted. Calls come from the whole dose curve; as a rule, active = well fitted inhibition curve with a large enough effect; inconclusive = small, poorly fitted or top-dose-only effect; inactive = no such curve, though single readings can be large or run the other way. Many of the other results were omitted from the sample, so actives are more common in it than they were.
Lab note: assign the record to one of active, inactive

# compound, class_label
measured = [
    ("Cc1ccccc1-c1nc(SCC(=O)N(C)c2ccccc2)c2c(=O)n(C)c(=O)n(C)c2n1", "inactive"),
    ("O=C(CN1C(=O)c2ccccc2S1(=O)=O)N1CCc2ccccc21", "active"),
    ("O=C(NCc1ccccc1)C1CCN(S(=O)(=O)c2ccc3[nH]c(=O)ccc3c2)CC1", "inactive"),
    ("Cn1cc(C(=O)c2ccc(Cl)cc2Cl)cc1C(=O)NN", "inactive"),
    ("CCN(CC)CCOC(=O)c1ccc(NC(=O)CNC(=O)c2ccccc2)cc1", "inactive"),
    ("CC1CCCN(C(=O)CN2C(=O)c3ccccc3S2(=O)=O)C1 (centres undefined)", "inactive"),
    ("COc1cccc(NC(=O)c2ccc3nc(CCc4ccccc4)oc3c2)c1", "inactive"),
    ("CO[C@H]1O[C@@H]2O[C@@]3(C)CC[C@@H]4[C@@H](C)CC[C@@H]([C@H]1C)[C@@]24OO3", "inactive"),
]

Qu. How did this test come out for CCc1nc2c(OCc3ccc(C(=O)OC)cc3)cccn2c1N(C)C(=O)C(C)C ?
Ans. inactive

Qu. Another: Cc1ccc(C)c(N2CCN(C(=O)CN3C(=O)COc4ccc(S(=O)(=O)N5CCCCCC5)cc43)CC2)c1
Ans. inactive

Qu. Another: CCOc1ccc(CCNC(=O)c2cc3c(=O)n(C)c4ccccc4c3n2C)cc1
Ans. inactive

Qu. Another: COc1ccc(S(=O)(=O)NCCSc2nnnn2-c2ccccc2)cc1
Ans. inactive

Qu. Another: CC(C)(C)c1cc(C(=O)NN)n(Cc2ccc(Cl)cc2Cl)n1
Ans. active

Qu. Another: CC(C)Sc1oc(-c2cccs2)nc1S(=O)(=O)c1ccc(Cl)cc1
Ans. inactive

Qu. Another: CC(C)(C)CC(C)(C)NCC(O)COCCOc1ccc(Br)cc1 (centres undefined)
Ans. active

Qu. Another: Cc1cc(C)cc(NC(=O)Cn2c(=O)c3ccccc3n3nncc23)c1
Ans. inactive

Qu. Another: O=C(CSc1ncn[nH]1)Nc1ccc(Br)cc1Br
Ans. inactive

Qu. Another: CCOc1ccc(CNC(=O)c2cccc(Nc3nc4ccccc4n4nnnc34)c2)cc1OC
Ans. inactive

Qu. Another: CCOc1ccc(NS(=O)(=O)c2ccc(N)cc2)nn1
Ans. inactive

Qu. Another: COc1ccc(OCC(O)CNCCNc2nccc(C(F)(F)F)n2)cc1 (centres undefined)
Ans. inactive

Qu. Another: O=C(c1cccc(Cl)c1)N1CCN(CCc2ccncc2)CC1
Ans. inactive

Qu. Another: NC(N)=N/N=C/c1ccc(OCc2ccc(Cl)cc2Cl)cc1
Ans. active

Qu. Another: CCOC(=O)C/C(C)=N\Nc1ccc([N+](=O)[O-])cc1[N+](=O)[O-]
Ans. inactive

Qu. Another: CCCCN1C(=O)C(C)=C(C)C1OCCc1ccc(OC)c(OC)c1 (centres undefined)
Ans. inactive

Qu. Another: CC(C)Oc1ccc(CN2CCC(n3nccc3NC(=O)c3cccnc3)CC2)cc1
Ans. inactive

Qu. Another: CO[C@H]1C=CO[C@@]2(C)Oc3c(C)c(O)c4c(O)c(c(/C=N/N5CCN(C)CC5)c(O)c4c3C2=O)NC(=O)/C(C)=C\C=C[C@H](C)[C@H](O)[C@@H](C)[C@@H](O)[C@@H](C)[C@H](OC(C)=O)[C@@H]1C
Ans. inactive

Qu. Another: COc1ccc(Cl)cc1N(CC(=O)N/N=C/c1ccc(OCC(N)=O)cc1)S(C)(=O)=O
Ans. inactive

Qu. Another: COc1ccc(OC)c(CNC(=O)Cn2nc(C)c3c(C)n(-c4ccccc4)nc3c2=O)c1
Ans. inactive

Qu. Another: CCCC(C(=O)OCCN(CC)CC)(c1ccccc1)c1ccccc1
Ans. active

Qu. Another: Cc1ccc(OCCn2c(CNc3ccccc3C)nc3ccccc32)cc1
Ans. inactive

Qu. Another: COc1ccc(-c2cc(NC=O)c3ncc(-c4ccccc4)n3c2)cc1OC
Ans. inactive

Qu. Another: Cc1ccc(C)c(N2CCN(C(=O)C3CCC(CNS(=O)(=O)c4cccs4)CC3)CC2)c1 (centres undefined)
Ans. inactive

Qu. Another: COc1ccc(NC(=O)C2CCCN(S(=O)(=O)c3c(C)[nH]c(=O)[nH]c3=O)C2)c(OC)c1 (centres undefined)
Ans. inactive

Qu. Another: CC(C)(C)NC(=O)NC(=O)COC(=O)Cc1ccc(Cl)cc1Cl
Ans. inactive

====

# test_description: Primary qHTS for Inhibitors of ATXN expression; also: nearly all actives have a fitted effect of over 55% in size
# condition_context: HEK-293 ATXN2-luciferase reporter, luminescence, 24 h; series mostly up to 57 µM
The whole screen tested about 360,000 compounds, of which about 2,600 (0.72%) were called active. Not shown: some 5% with an inconclusive outcome. The call rests on the fitted dose curve; in most records, active means well fitted inhibition curve with a large enough effect; inconclusive means small, poorly fitted or top-dose-only effect; inactive means no such curve, though single readings can be large or run the other way. The list comes from a sample in which actives are over-represented; it also holds close analogues and randomly drawn compounds.
Lab note: assign the record to one of active, inactive

# smiles_text, class_label
rows = [
    ("CCN1CCN(C(=O)N[C@@H](C(=O)N[C@@H]2C(=O)N3[C@@H]2SC(C)(C)[C@H]3C(=O)O)c2ccccc2)C(=O)C1=O", "inactive"),
    ("Cc1ccc(S(=O)(=O)c2c(Nc3cccc(Cl)c3)sc(C(=O)c3ccc4c(c3)OCO4)c2N)cc1", "inactive"),
]

Qu. How did this test come out for Cc1c(Cl)cccc1NC(=O)C(=O)NCCc1csc2nc(-c3ccccc3F)nn12 ?
Ans. inactive

Qu. Another: Cc1cc(N/C=C\C(=O)c2ccc(Cl)c(Cl)c2)no1
Ans. inactive

Qu. Another: CCOc1cc2ccccc2cc1C(=O)Nc1ccccn1
Ans. inactive

Qu. Another: CCOC(=O)C1=C(c2ccc(OC)cc2)C(=O)c2ccccc2C1=O
Ans. active

====

# test_description: Primary qHTS for Inhibitors of ATXN expression; also: nearly all actives have a fitted effect of over 55% in size
# condition_context: HEK-293 ATXN2-luciferase reporter, luminescence, 24 h; series mostly up to 57 µM
The campaign covered roughly 360,000 compounds. About 2,600 (0.72%) were called active. About 5% were inconclusive and are not listed. The call rests on the fitted dose curve; in most records, active means well fitted inhibition curve with a large enough effect; inconclusive means small, poorly fitted or top-dose-only effect; inactive means no such curve, though single readings can be large or run the other way. What follows is part of a selection rich in actives, with near analogues and random picks from the rest.
Lab note: assign the record to one of class 1 = active, class 0 = inactive

# molecule, class_label
data = [
    ("O=C(Cc1ccc(Cl)cc1)c1ccccc1", "class 0"),
    ("O=C(Nc1nnc(-c2ccccc2F)s1)c1ccccc1F", "class 0"),
]

Consider the additional molecule presented here.
Qu. How did this test come out for CCCCNC(=O)C1CCCN(c2nnc(C)c3c(C)n(-c4ccc(Cl)cc4)nc23)C1 (stereo unspecified) ?
Ans. class 0

====

# test_description: Primary qHTS for Inhibitors of ATXN expression; also: nearly all actives have a fitted effect of over 55% in size; also: potency is read from the fitted curve at half-maximal effect
# condition_context: HEK-293 ATXN2-luciferase reporter, luminescence, 24 h; series mostly up to 57 µM
The whole screen tested about 360,000 compounds, of which about 2,600 (0.72%) were called active. Roughly 5% stayed inconclusive and do not appear here. The list comes from a sample in which actives are over-represented; it also holds close analogues and randomly drawn compounds.
measured_property: Potency

# smiles_text, obs_value
rows = [
    ("CC(C)(C)OC(=O)N1CCC(c2c(C(=O)N3CCc4ccccc4C3)cnn2-c2ccc(F)cc2)CC1", "inactive"),
    ("CC(=O)O[C@]1(C(C)=O)CC[C@@H]2[C@@H]3C[C@H](C)C4=CC(=O)CC[C@]4(C)[C@H]3CC[C@@]21C", "inactive"),
    ("CC(C)OC(=O)c1ccc(NCc2cc(O)ccc2O)cc1Cl", "17.8 µM (active)"),
    ("CC(C)CC[n+]1ccn(C2=C([O-])c3ccccc3C(=O)/C2=N\\S(=O)(=O)c2ccccc2)c1", "31.6 µM (active)"),
]
